# protocol text: MELAS cybrid and Rieske KO viability enhancers – cell-based, MELAS cybrids, Rieske KO mouse fibroblasts, CellTiter-Glo, primary screen (AID 1508586);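 further: z relative to plate mean and SD of compound and empty wells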
# measurement conditions: Rieske KO mouse fibroblast survival, low glucose, CellTiter-Glo 72 h
Label false (0) if z-score falls below 0.2; label true (1) in every other case.

Use these answered entries as a reference point.
CCc1cc(C(=O)N2CCc3c(c(C(=O)N4CCN(c5ccccc5)CC4)nn3CC)C2)n(C)n1    false (0)
Cc1ccc(NC(=O)C2CC23CCCCC3)cn1 (configuration not stated)    false (0)
Cc1ccc(CNC(=O)c2nn(C)c3c2CC(NC2CCN(Cc4ccccc4)CC2)CC3)o1 (configuration not stated)    true (1)

Check this molecule for z-score at or above 0.2: C#CCC(c1nc2cc(Cl)ccc2c(=O)n1Nc1ccccc1)N(CCCN)C(=O)c1cccc(Cl)c1F (configuration not stated) false (0)

Check this molecule for z-score at or above 0.2: `COc1cccc(-c2cc3c(n(Cc4ccccn4)c2=O)CCN(C(=O)c2csc(C)n2)C3)c1` true (1)

Check this molecule for z-score at or above 0.2: COCC(=O)Nc1c(C(=O)OC)n(CCC(C)C)c2ncc(NC(C)CCn3cccn3)cc12 (configuration not stated) true (1)

Check this molecule for z-score at or above 0.2: `NC(=O)c1cccc(Nc2nccc(Nc3cccc4[nH]ncc34)n2)c1` false (0)

Check this molecule for z-score at or above 0.2: OC1(CNc2ncnc3nc[nH]c23)C2CC3CC(C2)CC1C3 (configuration not stated) false (0)

Check this molecule for z-score at or above 0.2: `Nc1cccc(-c2cccc(OCc3ccccc3)c2)n1` false (0)

Check this molecule for z-score at or above 0.2: `Cn1nc(-c2cccnc2)c2[nH]c(-c3ccccc3OC(F)F)nc21` true (1)

Check this molecule for z-score at or above 0.2: `CCn1ncc(NC(=O)Cn2ccc(-c3ncnn3C)n2)n1` false (0)

* * *

# cell count per entry
# protocol text: viability loss with induced miR-34 in A549 – imaging, A549 dox-inducible miR-34, nuclei and caspase counts, primary screen (AID 1347080)
# measurement conditions: A549 miR-34 inducible, Hoechst nuclei count, 48 h; measured here: total cells without miR-34 induction
# respond with the number and nothing more

These solved cases illustrate the format of a correct answer.
C=CCNC(=O)c1cccnc1-c1ccc(OC)c2ncccc12    9990
Cc1cc(=O)oc2c(C=O)c(O)ccc12    9320
CC(N)=NCCCC[C@@H](N)C(=O)O    10600
OC1(c2ccc(Cl)cc2)CCN(Cc2c[nH]c3ccccc23)CC1    6940
COc1cccc(-c2cccc(N)n2)c1F    10200
O=C(c1ccc2c(c1)OCCO2)N1CCCCC1    8530
CCc1cc(CN2CCN(C)C(CCO)C2)on1 (configuration not stated)    9580
COc1ccc(N2CCN(c3ncnc4sccc34)C(C)C2=O)cc1 (configuration not stated)    7810
S=C=Nc1cccc(NC(=S)NCCCCNC(=S)Nc2cccc(N=C=S)c2)c1    7650
CCC(=O)NCCC1CCc2ccc3c(c21)CCO3 (configuration not stated)    9370

Value of measured cell count for the entry `O=c1c2nccnc2ncn1Cc1scnc1-c1ccccc1` : 9940

Value of measured cell count for the entry `O=C(c1ccc(Cl)cc1)N1CCN(c2ccc([N+](=O)[O-])c3ncccc23)CC1` : 7170

* * *

# target entity: ATP-dependent translocase ABCB1 (Homo sapiens) (UniProt P08183)
# Sequence (P08183 whole entry, looked up): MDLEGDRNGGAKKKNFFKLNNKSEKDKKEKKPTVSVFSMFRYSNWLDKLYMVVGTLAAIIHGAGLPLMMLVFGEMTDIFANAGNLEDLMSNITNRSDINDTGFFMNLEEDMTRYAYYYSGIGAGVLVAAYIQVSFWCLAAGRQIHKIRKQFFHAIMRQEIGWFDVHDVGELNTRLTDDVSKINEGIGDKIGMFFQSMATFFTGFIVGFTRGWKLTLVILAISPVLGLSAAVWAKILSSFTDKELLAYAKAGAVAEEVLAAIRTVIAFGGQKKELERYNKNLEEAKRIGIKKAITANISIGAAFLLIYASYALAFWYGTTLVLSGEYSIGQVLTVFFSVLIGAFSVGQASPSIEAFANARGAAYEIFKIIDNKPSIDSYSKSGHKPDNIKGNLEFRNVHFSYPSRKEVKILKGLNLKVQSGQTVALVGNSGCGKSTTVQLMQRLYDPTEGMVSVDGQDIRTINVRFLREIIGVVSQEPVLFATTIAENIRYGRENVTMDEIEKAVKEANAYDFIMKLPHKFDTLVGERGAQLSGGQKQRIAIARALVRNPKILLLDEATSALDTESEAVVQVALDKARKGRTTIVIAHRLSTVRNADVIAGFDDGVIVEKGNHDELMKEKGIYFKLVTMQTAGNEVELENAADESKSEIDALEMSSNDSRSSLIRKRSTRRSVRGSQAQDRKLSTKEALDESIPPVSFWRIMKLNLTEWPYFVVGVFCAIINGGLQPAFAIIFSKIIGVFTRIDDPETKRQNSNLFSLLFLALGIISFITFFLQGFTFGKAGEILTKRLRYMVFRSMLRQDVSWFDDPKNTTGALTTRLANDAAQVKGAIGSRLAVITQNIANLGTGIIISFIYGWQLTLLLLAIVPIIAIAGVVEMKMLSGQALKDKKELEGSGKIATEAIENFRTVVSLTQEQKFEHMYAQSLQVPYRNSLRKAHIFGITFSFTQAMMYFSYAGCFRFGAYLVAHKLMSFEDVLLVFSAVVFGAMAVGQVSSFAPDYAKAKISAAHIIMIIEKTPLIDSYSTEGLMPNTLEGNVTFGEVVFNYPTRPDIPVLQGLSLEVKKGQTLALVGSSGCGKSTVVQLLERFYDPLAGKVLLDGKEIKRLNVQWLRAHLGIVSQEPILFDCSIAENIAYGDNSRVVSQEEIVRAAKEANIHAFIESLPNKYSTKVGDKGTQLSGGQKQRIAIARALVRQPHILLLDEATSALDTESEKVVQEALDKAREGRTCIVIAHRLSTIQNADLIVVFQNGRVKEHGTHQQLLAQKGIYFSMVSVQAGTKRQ
# protocol text: P-glycoprotein substrate transport blockade – cell-based (AID 377)
# measurement conditions: MDR1-expressing cells, fluorescent substrate accumulation slope; concentration not given here
Inconclusive results are not listed. Activity calls are given as the source filed them. Cut-off read from the data, not from the text of the source: active = fluorescence slope change above about 50%; inconclusive = mostly about 31% to 49%; inactive = weaker than that.
Permitted responses: T for active, F for inactive

c1ccc2c(c1)CCCc1cc(NCCN3CCOCC3)nnc1-2    T
CNCCC=C1c2ccccc2C=Cc2ccccc21    T
c1ccc2c(c1)CN1CCCCC1=N2    F

Which outcome was entered for the compound COc1ccc([C@@H]2CC(=O)c3c(O)cc(O[C@@H]4OC(CO[C@@H]5OC(C)[C@H](O)[C@H](O)C5O)[C@@H](O)[C@@H](O)C4O)cc3O2)cc1O (some centres undefined) in this test? F

* * *

# protocol text: growth inhibition, single agents and combos, ICB984, cell-based, cisplatin or BGB combos, synergistic combos for chromothripsis tumors (AID 1671451);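 further: cells exposed for 96 hours before readout; 0% = vehicle DMSO and 100% = killing by high DMSO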
# measurement conditions: ICB984 medulloblastoma cells, drug combinations, cisplatin combo, at 0.05 µM, stronger effect = higher value
# inhibition per entry
Response body: numeric value in %, unit text excluded.

These solved cases illustrate the format of a correct answer.
CC(C)C(=O)SCCCCCCC(=O)Nc1nc(-c2ccccc2)cs1    28
Nc1ncn(C2OC(CO)C(O)C2O)c(=O)n1 (stereo not given)    62.8
CC1OC(CC(=O)O)CC2=C1C(=O)c1c(O)cccc1C2=O (stereo not given)    102
Nc1nc(NC2CC2)cc(-c2cccc(Cl)c2Cl)n1    -28.8

Value of measured inhibition for the entry `O=c1[nH]c(=S)[nH]c2nc(-c3ccccc3)c(-c3ccccc3)nc12` : -19.8

* * *

# protocol text: MELAS cybrid and Rieske KO viability enhancers – cell-based, MELAS cybrids, Rieske KO mouse fibroblasts, CellTiter-Glo, primary screen (AID 1508586);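 further: z relative to plate mean and SD of compound and empty wells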
# measurement conditions: Rieske KO mouse fibroblast survival, low glucose, CellTiter-Glo 72 h
Output MET for records whose z-score is lower than 0.3, NOT MET for records at or above 0.3.

CC(=O)O[C@H]1C[C@@]2(C)[C@@H](C[C@@H](O)[C@H]3[C@@]4(C)CC[C@@H](O)[C@@H](C)C4CC[C@@]32C)/C1=C(\CCC=C(C)C)C(=O)O (some centres undefined)    MET
O=C1c2ccc(Nc3ccc(F)cc3F)cc2CCc2ccc(OCC(O)CO)cc21 (centres undefined)    NOT MET
COc1cccc(OC)c1-c1ccc(C(=O)Nc2cccnc2)o1    NOT MET

Consider CCCC1CC(C(=O)NC(C(C)O)[C@@H]2OC(SC)C(O)C(O)C2O)N(C)C1 (some centres undefined) . Does its z-score lie strictly below 0.3? MET

Consider C[C@]12CC[C@H]3c4ccc(OC(=O)c5ccccc5)cc4CC[C@H]3[C@@H]1CCC2O (some centres undefined) . Does its z-score lie strictly below 0.3? MET

Consider `CCn1nccc1NC(=O)Cn1cc(-c2ccc(C(=O)N3CCCC3)cn2)cn1` . Does its z-score lie strictly below 0.3? MET

Consider O=C1CCC(CC(=O)N2CCc3[nH]nc(-c4ccc5c(c4)OCO5)c3C2)N1 (centres undefined) . Does its z-score lie strictly below 0.3? MET

Consider `CC(C)Cn1nc(C(=O)NCc2cccnc2)c2c1CCN(C(=O)c1scc3c1OCCO3)C2` . Does its z-score lie strictly below 0.3? NOT MET

* * *

# protocol text: growth inhibition, single agents and combos, ICB984, cell-based, cisplatin or BGB combos, synergistic combos for chromothripsis tumors (AID 1671451);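 further: cells exposed for 96 hours before readout; 0% = vehicle DMSO and 100% = killing by high DMSO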
# measurement conditions: ICB984 medulloblastoma cells, drug combinations, measured here: 5 uM single agent, at 5 µM, stronger effect = higher value
Label F if inhibition falls below -20%; label T in every other case.

O=c1cc(-c2ccc(O)cc2)[nH]c(=S)[nH]1    T
O=c1ccn(C2CC(O)C(CO)O2)c(=O)[nH]1 (stereo not given)    F
NC(=O)c1ncn(C2OC(CO)C(O)C2O)c1O (stereo not given)    T

Check this molecule for inhibition at or above -20%: `COc1ccccc1S(=O)(=O)Nc1ccc2c(c1)CN(C)C(=O)N2` T

Check this molecule for inhibition at or above -20%: `CC(C)(C#N)c1ccc(N2C(=O)OCc3cnc4ccc(-c5cnc6ccccc6c5)cc4c32)cc1` F

Check this molecule for inhibition at or above -20%: `Cc1cc(C)c(Nc2ccnc(Nc3ccc(C#N)cc3)n2)c(C)c1` F

Check this molecule for inhibition at or above -20%: NC(=O)c1cccc2cn(-c3ccc(C4CCCNC4)cc3)nc12 (stereo not given) T

Check this molecule for inhibition at or above -20%: C=C1CCC(O)CC1=CC=C1CCCC2(C)C1CCC2C(C)C=CC(C)C(C)C (stereo not given) F

Check this molecule for inhibition at or above -20%: NC(=O)c1cccc2[nH]c(-c3ccc(C4CCCN4)cc3F)nc12 (stereo not given) T

Check this molecule for inhibition at or above -20%: CC1OC(n2cc(F)c(=O)[nH]c2=O)C(O)C1O (stereo not given) F

* * *

# protocol text: viability loss with induced miR-34 in A549 – imaging, A549 dox-inducible miR-34, nuclei and caspase counts, primary screen (AID 1347080)
# measurement conditions: A549 miR-34 inducible, Hoechst nuclei count, 48 h; measured here: relative caspase fold change +Dox/-Dox
measured endpoint: fold change

Value of measured fold change for the entry `COc1ccc(CN2CCN(c3nccc(-c4cn(C)nc4C)n3)CC2=O)cc1` : 1.57

Value of measured fold change for the entry `COc1cc2ncnc(Nc3ccc(F)c(Cl)c3)c2cc1NC(=O)C=CCN1CCCCC1` : 0.707

Value of measured fold change for the entry Cc1ccc(C(=O)N(CCCN)C(c2nc3cc(Cl)ccc3c(=O)n2Cc2ccccc2)C(C)C)cc1 (centres undefined) : 0.877

Value of measured fold change for the entry `CN(C)C(N)=NCCC[C@H](N)C(=O)O` : 1.27

Value of measured fold change for the entry `Cn1c(=O)ccc2ccccc21` : 0.453

Value of measured fold change for the entry `NS(=O)(=O)c1ccc(CCC(=O)O)cc1` : 0.214

Value of measured fold change for the entry `Nc1nc(=S)c2ncn([C@@H]3O[C@H](CO)[C@@H](O)[C@H]3O)c2[nH]1` : 1.52

Value of measured fold change for the entry `CO/N=C(\C(=O)N[C@@H]1C(=O)N2C(C(=O)O)=C(COC(C)=O)CS[C@H]12)c1csc(N)n1` : 1.17

Value of measured fold change for the entry C[C@H](Cc1ccccc1)Nc1ncnc2c1ncn2[C@@H]1O[C@H](CO)[C@H](O)C1O (some centres undefined) : 0.57

Value of measured fold change for the entry `O=C(c1cccnc1)N1CCOCC1` : 0.837
